- Test system: SEM cells
- procedure text: cell viability relative to DMSO control; higher = less cytotoxic
- details: RPMI 5 mM glucose + 10% FBS; 48 h; 0.0211 µM
reported endpoint: cell viability (%)
Numbers only, in %.

// solved cases for cell viability follow
>>> print(df.to_string())
                                   compound  unit  quantitative_readout
0  FC1=C(C=C(C\C2=N\NC(=O)C3=C2C=CC=C3)C=C1)C(=O)N4CCN(CC4)C(=O)C5CC5     %                   109
1  CC1CNc2c(cccc2[S+](=O)([O-])N[C@@H](CCCNC(=N)N)C(=O)N2CC[C@@H](C)C[C@@H]2C(=O)O)C1 (some centres undefined)     %                   108
2  O=C(C=CC#Cc1cccc(N[S+](=O)([O-])c2ccccc2)c1)NO     %                   111
3      C[C@@]12C(=O)OC(=O)[C@@]1(C)C1CCC2O1     %                   112

Give me cell viability for each of these compounds, listed below.
1. COCC1(CO)C(=O)C2CCN1CC2 (centres undefined)
2. O=C(O)C1(Cc2cccc(Nc3nccs3)n2)CCC(Oc2cccc(Cl)c2F)CC1 (centres undefined)
3. CC(C)CNc1ccnc(NCc2csc(-c3ccccc3)n2)n1
4. C[C@H]1C[C@@H]2[C@H](CC[C@@]3(C)[C@H]2CC[C@]3(OC(C)=O)C(C)=O)[C@@]\4(C)CCC(=O)\C=C14
5. C[C@](Cc1c[nH]c2ccccc12)(NC(=O)OC1C2CC3CC(C2)CC1C3)C(=O)NC[C@H](NC(=O)CCC(=O)O)c1ccccc1 (some centres undefined)
6. C[C@](O)(CS(=O)(=O)c1ccc(F)cc1)C(=O)Nc1ccc(C#N)c(C(F)(F)F)c1
7. CC(C)(C#N)c1cc(Cn2cncn2)cc(C(C)(C)C#N)c1

1. 134
2. 87.4
3. 113
4. 92.2
5. 121
6. 74.3
7. 102

###

- Tested on: P12-Ichikawa
- procedure text: cell viability relative to DMSO control; higher = less cytotoxic
- details: HPLM + 10% dialyzed FBS; 48 h; 15.4 µM
Exercise: for every item that follows, state its recorded cell viability.
Give bare numbers, in %.

Give me cell viability for each of these molecules, listed below.
1. O=C(Nc1cc(Cl)cc2c1[nH]c1cnccc12)c1cccnc1
2. CC(C)OC(=O)C(C(=O)OC(C)C)=C1S\C=C/S1
3. C[C@H]1COC2=C3N1\C=C(C(O)=O)/C(=O)C3=CC(=C2N4CCN(C)CC4)F
4. O=C(O)Cn1nnc(-c2cc(N3CCC(Oc4cc(F)ccc4Br)CC3)no2)n1
5. c1ccc(CCCN2CCN(CCOC(c3ccccc3)c3ccccc3)CC2)cc1

113
118
85.6
12
77.3

Give me cell viability for each of these molecules, listed below.
1. ClC1=CC=C(C=C1)C(C#N)C2=C(Cl)C=C(C=C2Cl)N3\N=C/C(=O)NC3=O (stereo not given)
2. CC[C@]12CC[C@H]3[C@@H](CCC/4=C/C(=O)CC[C@H]34)[C@@H]1\C=C/[C@@]2(O)C#C
3. CC(C)(C)NC(=O)Nc1cccc(Nc2ncc(F)c(NC(C)(C)CO)n2)c1
4. C[S+](=O)([O-])Nc1ccc([N+](=O)[O-])cc1Oc1ccccc1
5. CN1CCN(C2=Nc3cc(Cl)ccc3Nc3ccccc32)CC1
6. C[C@@H](Oc1cc(-c2cnn(C3CCNCC3)c2)cnc1N)c1c(Cl)ccc(F)c1Cl

1. 86.3
2. 123
3. 14.7
4. 102
5. 104
6. 73.5

Give me cell viability for each of these molecules, listed below.
1. FC1=CC=C(C=C1)N2/C=C\C=C(C(=O)NC3=CC=C(OC4=C5C=C[NH]C5=NC=C4)C(=C3)F)/C2=O
2. CC1(C)O[C@@H]2C[C@H]3[C@@H]4C[C@H](F)C5=CC(=O)C=C[C@]5(C)[C@@]4(F)[C@@H](O)C[C@]3(C)[C@]2(C(=O)CO)O1
3. CCC1(c2ccccc2)C(=O)NCNC1=O
4. N[S+]([O-])(=O)C1=C(Cl)C=C2\N=C/N[S+]([O-])(=O)C2=C1

123
62.9
118
106

###

- Tested on: P12-Ichikawa
- procedure text: cell viability relative to DMSO control; higher = less cytotoxic
- details: RPMI 5 mM glucose + 10% dialyzed FBS; 48 h; 46.1 µM
reported endpoint: cell viability (%)
Answers are plain numbers, in %.

>>> df
                                   compound  reported_endpoint  quantitative_readout
0                c1ccc2[nH]c(-c3cscn3)nc2c1     cell viability                  72.9
1  CC(C)c1ccc2c(c1)c(SC(C)(C)C)c(CC(C)(C)C(=O)[O-])n2Cc1ccc(Cl)cc1     cell viability                  84.5

Give me cell viability for each of these compounds, listed below.
1. COC(=O)Nc1cc(Nc2cc(NC3CC3)c3ncc(C#N)n3n2)c(Cl)c(N2CCN(C)CC2)c1
2. N#CCNC(=O)c1ccc(-c2ccnc(Nc3ccc(N4CCOCC4)cc3)n2)cc1
3. O=C1[C@H](Cc2ccc(O)cc2)N2C(=O)CCN(C(=O)NCc3ccccc3)[C@H]2CN1Cc1cccc2ccccc12

[4.2, 25.3, 72.5]

Give me cell viability for each of these compounds, listed below.
1. CC[C@]12CC[C@H]3[C@@H](CCC/4=C/C(=O)CC[C@H]34)[C@@H]1\C=C/[C@@]2(O)C#C
2. CCN1CCN(c2ccc(Nc3cc(N(C)C(=O)Nc4c(Cl)c(OC)cc(OC)c4Cl)ncn3)cc2)CC1
3. S=C(NCc1ccc2c(c1)OCO2)N1CCN(c2ncnc3c2oc2ccccc23)CC1
4. Clc1ccc(-c2nc3sccn3c2/C=N/OCc2ccc(Cl)c(Cl)c2)cc1
5. C[S+](=O)([O-])Nc1ccc([N+](=O)[O-])cc1Oc1ccccc1

1. 116
2. 53.2
3. 35.3
4. 102
5. 48.7

Give me cell viability for each of these compounds, listed below.
1. CNCC(O)c1ccc(O)cc1 (stereo unspecified)
2. Cc1onc(-c2ccccc2Cl)c1C(=O)N[C@@H]1C(=O)N2[C@@H]1SC(C)(C)[C@@H]2C(=O)[O-]
3. CCOC(=O)N1CCN(/[N+]([O-])=N/Oc2ccc([N+](=O)[O-])cc2C#N)CC1
4. CN(C)[S+](=O)([O-])c1ccc2c(c1)C(=Cc1cc3c([nH]1)CCCC3)C(=O)N2

114
98.1
9.91
108

Give me cell viability for each of these compounds, listed below.
1. ClC1=CC=C(C=C1)C(C#N)C2=C(Cl)C=C(C=C2Cl)N3\N=C/C(=O)NC3=O (stereo unspecified)
2. COc1ccc(-c2ccc3ncc4c(c3c2)n(-c2ccc(N3CCNCC3)c(C(F)(F)F)c2)c(=O)n4C)cn1

1: 76; 2: 3.63

###

- Test system: NOMO1
- procedure text: cell viability relative to DMSO control; higher = less cytotoxic
- details: HPLM + 10% dialyzed FBS; 48 h; 0.00234 µM
reported endpoint: cell viability (%)
Numbers only, in %.

Give me cell viability for each of these molecules, listed below.
1. OC[C@H]1O[C@H]([C@H](O)[C@@H]1O)N2\C=C/C(=O)NC2=O
2. CC(C)C1NC(=O)C(NC(=O)C2=C3\N=C\4/C(=C(C)\C(=O)\C(=C4C(=O)NC5C(C)OC(=O)C(C(C)C)N(C)C(=O)CN(C)C(=O)C6CCCN6C(=O)C(NC5=O)C(C)C)N)OC3=C(C)C=C2)C(C)OC(=O)C(C(C)C)N(C)C(=O)CN(C)C(=O)C7CCCN7C1=O (stereo not given)
3. O=C1NC(=O)/C(=C/c2ccc3nccc(-c4ccncc4)c3c2)S1

1: 127; 2: 9.4; 3: 96.8

###

- Test system: NOMO1
- procedure text: cell viability relative to DMSO control; higher = less cytotoxic
- details: HPLM + 10% dialyzed FBS; 48 h; 0.0632 µM
reported endpoint: cell viability (%)
Answers are plain numbers, in %.

// solved cases for cell viability follow
>>> print(df.to_string())
                                smiles_text  unit  quantitative_readout
0  CNC(=O)c1ccc(N2C(=S)N(c3cnc(C#N)c(C(F)(F)F)c3)C(=O)C23CCC3)cc1F     %                   110
1  COC\1=C(/OC)C(=O)\C(=C(C)/C1=O)CCCCCCCCCCO     %                   114
2      CCOC(=O)c1ccc(OC(=O)CCCCCNC(=N)N)cc1     %                   137

Give me cell viability for each of these compounds, listed below.
1. Cc1onc(-c2ccccc2Cl)c1C(=O)N[C@@H]1C(=O)N2[C@@H]1SC(C)(C)[C@@H]2C(=O)[O-]
2. C[C@]12CC[C@@H]3c4ccc(O)cc4CC[C@H]3[C@@H]1[C@@H](O)[C@@H](O)[C@@H]2O
3. CC(=O)O[C@@]1(CC[C@H]2[C@@H]3\C=C(Cl)/C4=C/C(=O)[C@@H]5C[C@@H]5[C@]4(C)[C@H]3CC[C@]12C)C(C)=O
4. CC(C)(C)NC(=O)Nc1cccc(Nc2ncc(F)c(NC(C)(C)CO)n2)c1

1. 98.9
2. 121
3. 133
4. 112

Attribution: the supplement of paper PMC11451515
